Where these numbers come from: PubChem BioAssay (NCI)

# Test system: HL-60(TB) leukemia
# procedure.details: NCI tumour cell line growth inhibition, 48 h
Label label 1 when TGI is at or above 30 µM; otherwise label label 0.

# count of solved cases: 3
INSERT INTO measurements (compound, classification) VALUES
  ('Clc1cc(Cl)c(OCC#CI)cc1Cl', 'label 0'),
  ('O=C1OC(CCCl)(c2ccccc2)CC1CN1CCOCC1 (configuration not stated)', 'label 0'),
  ('COc1ccc(NC2Oc3cc4c(cc3C(c3cccc(OC)c3OC)C2C)OCO4)cc1 (configuration not stated)', 'label 0');

Q. Form field: TGI at least 30 µM? Entry: O=C(CN1CCNCCN(CC(=O)N2CCCCC2)CCNCC1)N1CCCCC1
A. label 1

Q. Form field: TGI at least 30 µM? Entry: CC(C)[C@@H]1NC(=O)[C@H]2N=C(O[C@@H]2C)[C@@H]2CCCN2C(=O)[C@H](Cc2ccccc2)NC(=O)[C@@H]2CSC(=N2)[C@@H](Cc2ccccc2)NC(=O)[C@@H]2CSC1=N2
A. label 1

Q. Form field: TGI at least 30 µM? Entry: CC(=O)NC1=C(OS(=O)(=O)c2ccc(C)cc2)CN(C)C1=O
A. label 0

Q. Form field: TGI at least 30 µM? Entry: N#Cc1c(N)oc(-c2cccc([N+](=O)[O-])c2)c1C#N
A. label 1

###

# Tested on: OVCAR-4 ovarian
# procedure.details: NCI tumour cell line growth inhibition, 48 h
assay.metric: GI50

// below: answered molecules
INSERT INTO assay_data (molecule, observed_value) VALUES
  ('COC(=O)C(Cc1ccccc1)NC(=O)NC(=O)NC(=O)CI (stereo not drawn)', '4.41 µM'),
  ('N/C(=N\N=C\c1ccc(-c2ccccc2)cc1)N[N+](=O)[O-]', '10.8 µM'),
  ('C=C1CC[C@@H]2[C@](C)(COC(C)=O)[C@@H](O)CC[C@@]2(C)[C@@H]1COc1ccc2ccc(=O)oc2c1', '> 100 µM'),
  ('Cc1cc(NCc2cc(Nc3ccnc4cc(Cl)ccc34)ccc2F)nc(N2CCCC2)n1', '1.27 µM'),
  ('COc1cccc(NC(=O)c2sc3nc4c(cc3c2N)CN(Cc2ccccc2)CC4)c1', '2.68 µM'),
  ('C=CC(=O)N1CCN(c2ccc3cccc(NC(=O)c4cnc(C)cn4)c3n2)CC1', '2.66 µM'),
  ('Cn1c2c(cc(S(=O)(=O)c3ccccc3)c1=O)CCc1c-2cnn1-c1ccc(Cl)cc1', '2.5 µM'),
  ('Cc1cc(N/N=C/c2nc(-c3ccc(Br)cc3)oc2C)c2cc(Cl)ccc2n1', '> 100 µM'),
  ('COc1ccc2cc(-c3ccoc(=O)c3-c3cc(OC)c(OC)c(OC)c3)ccc2c1', '1.16 µM'),
  ('COc1cccc(C=Nc2cc(C)ccn2)c1O.COc1cccc(C=Nc2cc(C)ccn2)c1O.[Cu]', '25.4 µM');

Q. Please give the measured GI50 for this molecule: C=CC(=O)Nc1cccc(C)c1Nc1cc(-c2cccnc2Cc2c(C)c(OC)cc(OC)c2C)ncn1
A. 20.6 µM

Q. Please give the measured GI50 for this molecule: N#C/C(=C\c1c(-c2ccccc2)[nH]c2ccccc12)S(=O)(=O)c1ccccc1
A. 5.47 µM

Q. Please give the measured GI50 for this molecule: CCN1CCC(CCOC)(CN2c3ccccc3Sc3ccc(Cl)cc32)C1 (stereo not drawn)
A. 2.72 µM

Q. Please give the measured GI50 for this molecule: O=C(C1CCCCC1)[C@@H]1[C@]2(C(=O)NC3CCCCC32)[C@@H]2CCCN2[C@@]12C(=O)NC1CCC(Cl)CC12 (stereo partly drawn)
A. 64.4 µM

Q. Please give the measured GI50 for this molecule: C[C@@H]1CC[C@H]2C(COCCOCC3=C(C(F)(F)F)O[C@@H]4O[C@@]5(C)CC[C@H]6[C@H](C)CC[C@@H]3[C@@]46OO5)=C(C(F)(F)F)O[C@@H]3O[C@@]4(C)CC[C@@H]1[C@]32OO4
A. > 100 µM

Q. Please give the measured GI50 for this molecule: CS(=O)(=O)c1ccc(C(=O)Nc2ccc(Cl)c(-c3ccccn3)c2)c(Cl)c1
A. 29.7 µM

Q. Please give the measured GI50 for this molecule: COc1ccc(-c2n[nH]nc2-c2cc(OC)c3c(c2OC)OCO3)cc1
A. 4.81 µM

Q. Please give the measured GI50 for this molecule: CCCn1c(C)nc2c1C(=O)c1ccccc1C2=O
A. 25 µM
